System: MS2 coat protein
MEASUREMENT_DESCRIPTION: apparent KD of MS2 coat protein; designed switch direction (-1 OFF switch, 1 ON switch): -1; higher = weaker reporter binding
CONDITION_SET: input ligand: none
Cut-off 30 nM on apparent KD of MS2 coat protein, inclusive. At or above means true (1); below means false (0).

Data request: Textbook exercise: given the entry ACAUGAGGAUCACCCAUGUCGAGUACAUGAGGAUCACCCAUGUAGGAUAUGGUUCGCUUUGCGUGCUAGAAGGAUAUGUGAUGA [salish99_ExNG3_r04_512] (Eterna round: R96, puzzle: Exclusion NG 3) , state whether its apparent KD of MS2 coat protein is greater than or equal to 30 nM.
Data returned: true (1)

Data request: // next record AUUUUGUGAGGAUAUGUGGCUUCGAUCGUAAAAACGAGGCUACAGAAGGCACAUGAGGAUCACCCAUGUUCCUA [salish99_ex4_r4_119] (Eterna round: R97, puzzle: Exclusion 4)
Data returned: false (0)

Data request: // next record UUUAGUUCAGGAUAUGAUGAAUUAUACAUGAGGAUCACCCAUGUAGAUCCUGAAUUAACAUCAGAAGGGAACAUUU [JL-ex5-4.46 Brourd mod] (Eterna round: R97, puzzle: Exclusion 5)
Data returned: false (0)

Next:
Data request: Textbook exercise: given the entry AAUAAUGAACGAGCUUUUUACAUGAGGAUCACCCAUGUCCUCUGCUCGUCUUGUCUUGGGCUUUUUUUGGGUUCGGG [-22.1, -44.7 kcal, A 17%] (Eterna round: R97, puzzle: Sensor, turn-off variant 1) , state whether its apparent KD of MS2 coat protein is greater than or equal to 30 nM.
Data returned: true (1)

Data request: // next record AUUGUGUGAGGAUAUUAAUAGUAAAUGAAUAGAAUUAUGAUUGAGAAGGCACAUGAGGAUCACCCAUGUUCCUU [JR_Ex4_Sub081] (Eterna round: R97, puzzle: Exclusion 4)
Data returned: false (0)

Data request: // next record AACAGUACAGGAUAUACAUGAGGAUCACCCAUGUGAGAAUUAUGUGGCGUACCACAAAGUAGAAGGGUACUGGA [JL Maslow Revisted mod 3] (Eterna round: R96, puzzle: Exclusion 3)
Data returned: true (1)

Data request: // next record GUCAGCUCGUGAGGAUAUACAUCACUGCUUCGGCAGUGUAUUAAGAUCACAUGAGGAUCACCCAUGUAGAAGGUACGAGCUGAU [ENG2/2-C2] (Eterna round: R96, puzzle: Exclusion NG 2)
Data returned: false (0)

Data request: // next record CGAACUGUCUAGGAUAUACUCCCAUGCAGUUGAGUAGAAGGAGACACAUGAGGAUCACCCAUGUGACCCGAAGU [EX6 C.12] (Eterna round: R97, puzzle: Exclusion 6)
Data returned: false (0)

###

Tested on: MS2 coat protein
MEASUREMENT_DESCRIPTION: apparent KD of MS2 coat protein, switch ON state; designed switch direction (-1 OFF switch, 1 ON switch): -1; higher = weaker reporter binding
CONDITION_SET: FMN input: 0 or 200 uM; Eterna round: R93 (includes R88 designs)
Kindly supply the reported apparent KD of MS2 coat protein values for the records listed here.

For each entry beneath this line, provide reported apparent KD of MS2 coat protein.
1. CGCUAGUCAGGAUAUACGAACAUGUCAAAAGACGUGAAAAAACAUGAGGAUCACCCAUGUAGAAGGGACUAGCG [Mat - Exclusion 2 - JL mod - D17]
2. GUCCUACAUGAGGAUCACCCAUGUCAGGAUAUGCACCGGUUGCUUUAGACCGGUAAAGGCAGAAGGGACGGGUG [Orzadima]

Data returned:
1: 16.2 nM; 2: 23.2 nM

Data request: What apparent KD of MS2 coat protein value was documented for this sequence, GAAUGACUAGGAUAUACAUGAGGAUCACCCAUGUGUUAAAAUAAAUACACAAAAGAAAGUAGAAGGAGUCAAAG [Mat - Exclusion 3 - Mayanna mod - D126] ?
Data returned: 21 nM
